# target_or_test_system: T1, recombinant c-Met extracellular domain (R&D Systems cat#358-MT-100/CF) (UniProt P08581 25-932)
# T1 chain: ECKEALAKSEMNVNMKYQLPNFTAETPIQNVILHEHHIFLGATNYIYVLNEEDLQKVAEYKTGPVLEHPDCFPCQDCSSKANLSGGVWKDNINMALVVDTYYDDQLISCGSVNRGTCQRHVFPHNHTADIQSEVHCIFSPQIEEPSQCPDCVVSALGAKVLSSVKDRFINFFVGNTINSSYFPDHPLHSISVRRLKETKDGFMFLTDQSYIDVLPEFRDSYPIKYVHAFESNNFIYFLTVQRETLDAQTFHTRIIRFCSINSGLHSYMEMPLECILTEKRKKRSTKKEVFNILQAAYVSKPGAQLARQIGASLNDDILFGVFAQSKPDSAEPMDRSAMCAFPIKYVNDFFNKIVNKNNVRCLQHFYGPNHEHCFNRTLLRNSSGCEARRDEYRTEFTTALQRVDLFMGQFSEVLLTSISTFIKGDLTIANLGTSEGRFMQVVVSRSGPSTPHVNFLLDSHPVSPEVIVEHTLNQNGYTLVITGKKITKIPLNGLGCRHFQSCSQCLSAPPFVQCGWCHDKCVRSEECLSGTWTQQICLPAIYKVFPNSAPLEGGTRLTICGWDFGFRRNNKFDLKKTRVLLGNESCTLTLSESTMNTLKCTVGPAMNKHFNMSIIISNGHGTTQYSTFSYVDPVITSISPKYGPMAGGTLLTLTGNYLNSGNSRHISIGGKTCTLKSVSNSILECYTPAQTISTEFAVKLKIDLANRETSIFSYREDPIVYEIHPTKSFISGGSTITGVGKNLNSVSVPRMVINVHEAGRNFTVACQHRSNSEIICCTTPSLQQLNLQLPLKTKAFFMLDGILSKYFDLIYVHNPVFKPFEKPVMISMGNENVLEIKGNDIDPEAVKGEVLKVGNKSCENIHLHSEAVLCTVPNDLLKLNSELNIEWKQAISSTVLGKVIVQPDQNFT
# method_notes: ELISA, blocking of HGF binding to c-Met
pIC50: −log10 of the molar value.
Reported pIC50 by item:
quantity_kind: pIC50

binder="El-A11 (E1 derived anti-c-Met antibody) (antibody, V domains shown) VH: QVQLVQSGAEVKKPGASVKVSCKASGFTFSGDYIHWVRQAPGQGLEWMGWINPNSGGTNYAQKFQGRVTMTRDTSISTAYMELSRLRSDDTAVYYCAREPARDYYYYDGLDVWGQGTTVTVSS VL: QSVVTQPPSVSGAPGQRVTISCLGSSSNIGAGHDVHWYQQLPGTAPKLLIYGNSNRISGVPDRFSGSKSGTSASLAITGLQAEDEADYYCQSYSSSLSAYLFGTGTKVTVL" observed_value=8.65
binder="E1 anti-c-Met antibody in IgG format (antibody, V domains shown) VH: QVQLVQSGAEVKKPGASVKVSCKTSGYTFSGDYMHWVRQAPGQGLEWMGWINPNSGGTNYAQKFQGRVTMTRDTSISTAYMELSRLRSDDTAVYYCAREPGRDYYYYDGMDVWGQGTTVTVSS VL: QSVVTQPPSVSGAPGQRVTISCTGSSSNIGAGYDVHWYQQLPGTVPKLLIYGNSNRPSGVPDRFSGSKSGTSASLAITGLQAEDEADYYCQSYDSSLSAYVFGTGTKVTVL" observed_value=8.50
